# Tested on: tubulin
# test: Tubulin polymerization assay
# Assay type: biochemical
# test settings: degree of polymerization relative to tubulin control
# Protocol: A96-well half-area clear flat-bottom microplate (Corning® #3697) was pre-heated in a plate reader (Cytation 3, BioTek) at 37° C. for 15 minutes prior to the start of each assay. […] The assay plate was immediately put in the reader at 37° C. and shook for 5 s with orbital shaking at medium speed. The reader recorded the absorbance at 340 nm every 15 s for 30 min. The resulting absorbance curves were normalized by subtracting each data point by the absorbance at time 0. […]

structure	% D.O.P.
CN(C)S(=O)(=O)c1c(F)c(F)c(F)c(F)c1F	A (>85%)
COc1ccc(NS(=O)(=O)c2c(F)c(F)c(F)c(F)c2OCC2CC2)cc1F	A (>85%)
COc1ccc(NS(=O)(=O)c2c(F)c(F)c(F)c(F)c2OCC(C)(C)C)cc1F	A (>85%)
COc1ccc(NS(=O)(=O)c2cc(F)c(F)c(F)c2F)cc1F	B (< 85%)
COc1ccc(NS(=O)(=O)c2c(F)c(F)c(F)c(F)c2OCC(F)(F)F)cc1F	B (< 85%)

====

# target system: BTK (Homo sapiens, UniProt Q06187)
# Sequence (Q06187 whole entry, species assumed): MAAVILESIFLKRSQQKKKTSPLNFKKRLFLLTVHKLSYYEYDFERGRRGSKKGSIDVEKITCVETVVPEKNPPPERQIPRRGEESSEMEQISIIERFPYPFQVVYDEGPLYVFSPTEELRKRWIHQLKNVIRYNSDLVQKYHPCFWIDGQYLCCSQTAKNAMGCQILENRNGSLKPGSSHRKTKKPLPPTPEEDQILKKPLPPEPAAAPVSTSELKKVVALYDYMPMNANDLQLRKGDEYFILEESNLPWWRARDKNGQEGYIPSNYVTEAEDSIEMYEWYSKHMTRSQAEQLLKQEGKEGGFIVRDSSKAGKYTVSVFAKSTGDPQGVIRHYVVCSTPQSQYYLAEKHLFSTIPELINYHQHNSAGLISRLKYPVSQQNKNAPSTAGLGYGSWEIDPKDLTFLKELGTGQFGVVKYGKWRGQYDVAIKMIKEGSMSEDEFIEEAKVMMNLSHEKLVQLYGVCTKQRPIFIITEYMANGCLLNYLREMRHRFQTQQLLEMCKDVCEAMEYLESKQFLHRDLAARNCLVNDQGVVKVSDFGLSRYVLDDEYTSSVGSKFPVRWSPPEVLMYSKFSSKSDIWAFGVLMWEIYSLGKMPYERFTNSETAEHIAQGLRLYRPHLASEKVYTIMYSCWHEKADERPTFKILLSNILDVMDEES
# test: BTK irreversible inhibition, enzyme kinetic analysis
# Type: biochemical
# test settings: after 3-h incubation of 50 nM BTK with 280 nM compound; 500 μM ATP; read-out: IC50 against pre-incubated BTK

structure	IC50 (nM)
COc1c(F)c(F)c(F)c(F)c1S(=O)(=O)NCCn1nc(-c2ccc(Oc3ccccc3)cc2)c2c(N)ncnc21	13.9

====

Recorded pIC50 by entry
# System: RL human non-Hodgkin's lymphoma B cell line
# test: Cell viability in RL cells (Table 6)
# Assay type: cell-based
pIC50: −log10 of the molar value.

compound	pIC50
C=CC(=O)N1CCC[C@@H](n2nc(-c3ccc(Oc4ccccc4)cc3)c3c(N)ncnc32)C1 [Ibrutinib, reference compound]	4.52 to 5.00
Nc1ncnc2c1c(-c1ccc(Oc3ccccc3)cc1)nn2[C@H]1CCCN(S(=O)(=O)c2c(F)c(F)c(F)c(F)c2F)C1	5.00 to 6.00
Nc1ncnc2c1c(-c1ccc(Oc3ccccc3)cc1)nn2[C@@H]1CCCN(S(=O)(=O)c2c(F)c(F)c(F)c(F)c2F)C1	5.00 to 6.00
Nc1ncnc2c1c(-c1ccc(Oc3ccccc3)cc1)nn2S(=O)(=O)c1c(F)c(F)c(F)c(F)c1F	5.00 to 6.00

====

# target system: BTK (Homo sapiens, UniProt Q06187)
# test: In vitro BTK inhibition (no preincubation)
# Format: biochemical
# test settings: Table 17
pIC50: −log10 of the molar value.
metric name: pIC50

compound	target system	readout value
COc1c(F)c(F)c(F)c(F)c1S(=O)(=O)NCCn1nc(-c2ccc(Oc3ccccc3)cc2)c2c(N)ncnc21 [Compound 3A-6]	BTK (Homo sapiens, UniProt Q06187)	6.00 to 7.00
COc1c(F)c(F)c(F)c(F)c1S(=O)(=O)N1CCC[C@@H](n2nc(-c3ccc(Oc4ccccc4)cc3)c3c(N)ncnc32)C1 [Compound 3A-1]	BTK (Homo sapiens, UniProt Q06187)	6.00 to 7.00
Nc1ncnc2c1c(-c1ccc(Oc3ccccc3)cc1)nn2[C@@H]1CCCN(S(=O)(=O)c2c(F)c(F)cc(F)c2F)C1 [I-A5]	BTK (Homo sapiens, UniProt Q06187)	6.00 to 7.00

====

# target system: BTK (Homo sapiens, UniProt Q06187)
# test: BTK irreversible inhibition, enzyme kinetic analysis
# Format: biochemical
# test settings: fitting of linear reaction rates to a reversible binding model; read-out: IC50 (reversible binding model)
metric name: IC50 (nM)

structure	result unit	readout value
Nc1ncnc2c1c(-c1ccc(Oc3ccccc3)cc1)nn2[C@@H]1CCCN(S(=O)(=O)c2c(F)c(F)cc(F)c2F)C1	nM	334

====

# target system: BTK (Homo sapiens, UniProt Q06187)
# test: In vitro BTK inhibition (no preincubation)
# Format: biochemical
# test settings: Table 18
pIC50: −log10 of the molar value.

structure	pIC50
CN(CCNc1ncnc2[nH]ccc12)S(=O)(=O)c1c(F)c(F)c(F)c(F)c1F	6.00 to 7.00
O=S(=O)(NCCNc1ncnc2[nH]ccc12)c1c(F)c(F)c(F)c(F)c1F	8.00 to 10.00
Nc1ncnc2c1c(-c1ccc(Oc3ccccc3)cc1)nn2CCNS(=O)(=O)c1c(F)c(F)c(F)c(F)c1F	8.00 to 10.00

====

# test: Parallel artificial membrane permeability assay (PAMPA), Example C4
# Type: in vitro ADME
# test settings: PBS pH 7.4, 10 μM, 16 hours

molecule	−Log Pe
Nc1ncnc2c1c(-c1ccc(Oc3ccccc3)cc1)nn2[C@@H]1CCCN(S(=O)(=O)c2c(F)c(F)c(F)c(F)c2OC2CC2)C1 [I-A6]	C (>6 to ≤7)
Nc1ncnc2c1c(-c1ccc(Oc3ccccc3)cc1)nn2[C@@H]1CCCN(S(=O)(=O)c2cc(F)c(F)c(F)c2F)C1 [I-A4]	B (>5 to ≤6)
Nc1ncnc2c1c(-c1ccc(Oc3ccccc3)cc1)nn2[C@@H]1CCCN(S(=O)(=O)c2c(OC3CC3)c(F)c(F)c(F)c2OC2CC2)C1 [I-A7]	C (>6 to ≤7)
Nc1ncnc2c1c(-c1ccc(Oc3ccccc3)cc1)nn2[C@@H]1CCCN(S(=O)(=O)c2c(F)c(F)cc(F)c2F)C1 [I-A5]	B (>5 to ≤6)
Nc1ncnc2c1c(-c1ccc(Oc3ccccc3)cc1)nn2[C@@H]1CCCN(S(=O)(=O)c2c(F)c(F)c(F)c(F)c2F)C1 [I-A1]	B (>5 to ≤6)

====

# test: Reactivity profiling with glutathione, HPLC method
# Format: physicochemical
# test settings: IMDM buffer with 10% FBS and 5 mM GSH, 25 μM compound
metric name: half-life at 25 μM

structure	metric name	readout value
COc1ccc(NS(=O)(=O)c2c(F)c(F)c(F)c(F)c2OC2CC2)cc1F	half-life at 25 μM	1.67 to 16.7 h

====

# Test system: tubulin
# test: Tubulin polymerization assay
# Format: biochemical
# test settings: Vmax normalized to tubulin only control

compound	% Inhibition
COc1ccc(NS(=O)(=O)c2c(N)c(F)c(F)c(F)c2F)cc1F [Compound I-88]	A (<10%)
COc1ccc(NS(=O)(=O)c2c(F)c(F)c(F)c(F)c2OC(F)(F)F)cc1F [Compound I-84]	C (>20%)
O=S(=O)(Nc1ccc(F)cc1)c1c(F)c(F)c(F)c(F)c1OC1CC1 [Compound I-96]	A (<10%)
COc1ccc(Oc2c(F)c(F)c(F)c(F)c2S(=O)(=O)Nc2ccc(OC)c(F)c2)cc1 [Compound I-79]	A (<10%)
COc1ccc(NS(=O)(=O)c2c(F)c(F)c(F)c(F)c2OCF)cc1F [Compound I-83]	C (>20%)
COc1ccc(NS(=O)(=O)c2c(F)c(F)c(F)c(F)c2OCC(F)F)cc1F [Compound I-67]	C (>20%)

====

# Test system: tubulin
# test: Tubulin polymerization assay
# Type: biochemical
# test settings: Vmax normalized to tubulin only control

compound	% Inhibition
COc1ccc(NS(=O)(=O)c2c(F)c(F)c(F)c(F)c2OCC(C)(C)C)cc1F [Compound I-74]	A (<10%)
COc1ccc(NS(=O)(=O)c2c(F)c(F)c(F)c(F)c2OCC(F)(F)F)cc1F [Compound I-68]	B (10-20%)
COc1ccc(CNc2c(F)c(F)c(F)c(F)c2S(=O)(=O)Nc2ccc(OC)c(F)c2)cc1 [Compound I-87]	A (<10%)
COc1ccc(NS(=O)(=O)c2c(F)c(F)c(F)c(F)c2OCCF)cc1F [Compound I-66]	B (10-20%)
COc1ccc(NS(=O)(=O)c2c(F)c(F)c(F)c(F)c2OC2CCCC2)cc1F [Compound I-70]	A (<10%)
COc1ccc(NS(=O)(=O)c2c(F)c(F)c(F)c(F)c2Oc2ccc(OC)c(F)c2)cc1F [Compound I-78]	B (10-20%)
CN(C)S(=O)(=O)c1c(F)c(F)c(F)c(F)c1F [Compound I-1]	A (<10%)

====

# target system: BTK (Homo sapiens)
# test: BTK irreversible inhibition, enzyme kinetic analysis
# test settings: 0.1 nM BTK, 500 μM ATP, saturation kinetics of irreversible inhibition

compound	Ki
Nc1ncnc2c1c(-c1ccc(Oc3ccccc3)cc1)nn2[C@@H]1CCCN(S(=O)(=O)c2c(F)c(F)c(F)c(F)c2OCC(F)(F)F)C1 [Compound 3A-2]	0.12 µM
Nc1ncnc2c1c(-c1ccc(Oc3ccccc3)cc1)nn2[C@@H]1CCCN(S(=O)(=O)c2c(F)c(F)c(F)c(F)c2OC2CC2)C1 [I-A6]	0.0713 µM

====

# target system: NanoLuc-BTK fusion protein (Homo sapiens, UniProt Q06187)
# Sequence (Q06187 whole entry, the tested form may be a part): as the sequence (Q06187 whole entry, species assumed) above
# test: NanoBRET target engagement assay in HEK 293 cells
# test settings: tracer K-5, 2 hours
metric name: IC50 (nM)

structure	result unit	readout value
COc1c(F)c(F)c(F)c(F)c1S(=O)(=O)NCCn1nc(-c2ccc(Oc3ccccc3)cc2)c2c(N)ncnc21	nM	94
